Quick list: koff per entry.
- tested on: T1, HLA-A*0201 loaded with the Carcinoembryonic antigen (CEA)-derived … peptide (biotin on the C-terminal biotinylation tag)
- T1 construct: Soluble, biotinylated, immobilised on a streptavidin chip
- assay procedure: Biacore SPR

The examples below pair each entry with its known result.
# binder, koff
measured = [
    ("SEQ ID NO 68 (receptor, mutated soluble two domain ILT-2) MGHLPKPTLWAEPGSVITLFQPVTLRCQGGQETQEYRLYREKKTAPWITRIPQELVKKGQFPIPSITWEHAGRYRCYYGSDTAGRSESSDPLELVVTGAYIKPTLSAQPSPVVNSGGNVTLQCDSQVAFDGFILCKEGEDEHPQCLNSQPHARGSSRAIFSVGPVSPSRRWWYRCYAYDSNSPYEWSLPSDLLELLVL", "≤ 2 s⁻¹"),
    ("SEQ ID NO 6 (receptor, mutated soluble two domain ILT-2) MHLPKPTLWAEPGSVITLQSPVTLRCQGGQETQQYRLYREKKTAPWITRIPQELVKKGQFPIPSITWEHAGRYRCYYGSDTRQWSASSDPLELVVTGVYIKPTLSAQPSPVVNSGGNVTLQCDSQVAFDGFILCKEGEDDHPQCLNSQPHARGSSRAIFSVGPVSPSRRWRYRCYAYDSNSPYEWSLPSDLLELDVDG", "≤ 2 s⁻¹"),
]

Lab note: next binder to report on.
// koff value for SEQ ID NO 105 (receptor, mutated soluble two domain ILT-2) MGHLPKPTLWAEPGSVITMDQPVTLRCQGGQETQEYRLYREKKTAPWITRIPQELVKKGQFPIPSITWEHAGRYRCYYGSDTSQWSASSDPLELVVTGIYLAPTLSAQPSPVVNSGGNVTLQCDSQVAFDGFILCKEGEDEHPQCLNSQPHARGSSRAIFSVGPVSPSRRWWYRCYAYDSNSPYEWSLPSDLLELLVL : ≤ 2 s⁻¹
